Overview of recorded composite z-score for various compounds
# Measured on: Torsin-1A (Homo sapiens)
# Experiment description: torsin A mutant lysate binding on microarrays – cell lysate, small-molecule microarray, COS7 lysate, 635/667 nm fluorescence, primary screen (AID 1150);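 note: score pools 667 nm emission and signal to noise measuring lysate protein binding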
# Settings: COS7 hTOR1A mutant lysate, 635 nm fluorescence, higher = more signal
Please respond with just the number, no unit label.

Examples from the recorded data:
[
  {
    "Compound": "Cc1ccc(F)cc1S(=O)(=O)N[C@@H]1CCN(Cc2ccc(C(F)(F)F)cc2)C1",
    "composite z-score": 0.319
  },
  {
    "Compound": "CC(C)[C@H]1COC(=O)N1C(=O)[C@H]1[C@@H](c2ccccc2)N(c2ccccc2)O[C@@H]1C",
    "composite z-score": 0.624
  },
  {
    "Compound": "COCCOC(=O)N1C(=O)[C@@]2(c3cc(C#Cc4ccc(OC)cc4)ccc31)[C@H](C(N)=O)[C@H]1C(=O)O[C@H](c3ccccc3)[C@H](c3ccccc3)N1[C@@H]2c1ccc(O)cc1",
    "composite z-score": -1.29
  }
]

Tell me measured composite z-score for COCCOC(=O)N1C(=O)[C@@]2(c3cc(C#Cc4ccc(OC)cc4)ccc31)[C@H](c1ccc(OCCO)cc1)N1[C@H](c3ccccc3)[C@H](c3ccccc3)OC(=O)[C@H]1[C@@H]2C(=O)N1CCc2cc(OC)c(OC)cc2C1 please. 0.454

Tell me measured composite z-score for CCOC(=O)C[C@H]1[C@H](OC(=O)c2ccc(C(=O)c3ccccc3)cc2)[C@@H](NC(=O)c2ccc3ccccc3n2)c2cc(OCCCO)ccc2N1C(=O)c1ccc2ccccc2n1 please. 0.134

Tell me measured composite z-score for O=C(NCC(O)CO)[C@@]1(Cc2ccccc2)N=C(c2ccc(OCCCO)cc2)O[C@H]1c1ccccc1 (some centres undefined) please. 1.23

Tell me measured composite z-score for C=CCN1Cc2ccccc2C[C@]2(N=C(c3ccc(OCCCO)cc3)O[C@@H]2c2ccccc2)C1=O please. 1.15

Tell me measured composite z-score for O=C1OCC=C[C@H]2OC34C=CCN(CCN5CCOCC5)C(=O)[C@H]3N(CCCCCCO)C(=O)[C@@H]4[C@@H]12 (some centres undefined) please. -0.0406
